Biological target: 5-hydroxytryptamine receptor 7 (Rattus norvegicus, UniProt P32305)
Sequence (P32305 whole entry): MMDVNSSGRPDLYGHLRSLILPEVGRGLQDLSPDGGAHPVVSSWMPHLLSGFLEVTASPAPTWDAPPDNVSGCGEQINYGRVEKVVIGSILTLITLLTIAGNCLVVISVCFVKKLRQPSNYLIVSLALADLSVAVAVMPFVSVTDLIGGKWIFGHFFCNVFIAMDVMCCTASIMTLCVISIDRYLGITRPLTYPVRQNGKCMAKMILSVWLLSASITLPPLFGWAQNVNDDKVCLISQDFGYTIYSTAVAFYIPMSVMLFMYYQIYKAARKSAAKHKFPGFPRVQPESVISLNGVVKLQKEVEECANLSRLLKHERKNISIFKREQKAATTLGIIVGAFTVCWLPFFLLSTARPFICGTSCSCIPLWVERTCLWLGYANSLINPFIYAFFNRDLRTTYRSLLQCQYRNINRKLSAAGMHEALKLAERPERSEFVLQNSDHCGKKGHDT
Assay: Displacement of [3H]5-HT from over-expressed rat 5-hydroxytryptamine 7 receptor
recordedEndpoint: pKi
pKi (log units): -log10 of the concentration in mol/L.

Before answering, review these 2 worked examples.
>>> print(df.to_string())
                                        smi  measurement
0  CN1CCc2ccc3c4c2[C@H]1Cc1cccc(c1-4)[C@H]3N         7.87
1  CN1CCc2ccc3c4c2[C@H]1Cc1cccc(c1-4)[C@H]3O         7.87

Asked: Recorded pKi of CO[C@]1(C)c2cccc3c2-c2c1ccc1c2[C@@H](C3)N(C)CC1 , please.
Given back: 8.96

###

Target: D(2) dopamine receptor (Homo sapiens, UniProt P14416)
Sequence (P14416 whole entry): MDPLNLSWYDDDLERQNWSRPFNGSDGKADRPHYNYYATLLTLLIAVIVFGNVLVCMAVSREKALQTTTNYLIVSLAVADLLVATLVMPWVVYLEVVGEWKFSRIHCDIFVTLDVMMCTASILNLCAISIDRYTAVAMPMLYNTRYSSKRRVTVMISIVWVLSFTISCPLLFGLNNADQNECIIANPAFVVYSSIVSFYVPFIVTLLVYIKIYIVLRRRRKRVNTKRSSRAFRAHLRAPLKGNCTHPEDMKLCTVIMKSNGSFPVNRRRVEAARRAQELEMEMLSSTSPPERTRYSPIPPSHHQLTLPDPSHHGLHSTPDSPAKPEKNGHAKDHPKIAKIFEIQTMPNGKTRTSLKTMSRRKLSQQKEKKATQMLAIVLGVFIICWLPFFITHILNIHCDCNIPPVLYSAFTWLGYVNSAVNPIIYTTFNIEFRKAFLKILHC
Test: Displacement of [3H]raclopride from human Dopamine receptor D2A
Here, each record is paired with measured pKi data.
pKi (log units): -log10 of the concentration in mol/L.

Before answering, review these 4 worked examples.
>>> df
                                        smi                         measurementtarget  measurement
0  CN1CCc2ccc3c4c2[C@H]1Cc1cccc(c1-4)[C@H]3O  D(2) dopamine receptor (Homo sapiens, UniProt P14416)         7.62
1  CN1CCc2ccc3c4c2[C@H]1Cc1cccc(c1-4)[C@@H]3O  D(2) dopamine receptor (Homo sapiens, UniProt P14416)         6.67
2  CC(=O)N[C@@H]1c2cccc3c2-c2c1ccc1c2[C@@H](C3)N(C)CC1  D(2) dopamine receptor (Homo sapiens, UniProt P14416)         5.44
3  CO[C@@]1(C)c2cccc3c2-c2c1ccc1c2[C@@H](C3)N(C)CC1  D(2) dopamine receptor (Homo sapiens, UniProt P14416)         7.15

// moving on: another record for pKi
Asked: Reported pKi for D(2) dopamine receptor (Homo sapiens, UniProt P14416), given CCO[C@@]1(CC)c2cccc3c2-c2c1ccc1c2[C@@H](C3)N(C)CC1 ?
Given back: 7.61

###

Target: 5-hydroxytryptamine receptor 7 (Rattus norvegicus)
Assay: Displacement of [3H]5-HT from over-expressed rat 5-hydroxytryptamine 7 receptor
recordedEndpoint: Ki (nM)
The reply should be a number in nM, with the unit left off.

Before answering, review these 8 worked examples.
In [3]: df
Out[3]:
                                        smi  endpointunit  measurement
0  CN1CCc2ccc3c4c2[C@H]1Cc1cccc(c1-4)[C@]3(C)O            nM          4.3
1  CO[C@@]1(C)c2cccc3c2-c2c1ccc1c2[C@@H](C3)N(C)CC1            nM          1.1
2  CCO[C@@]1(CC)c2cccc3c2-c2c1ccc1c2[C@@H](C3)N(C)CC1            nM         3.05
3  CN1CCc2ccc3c4c2[C@H]1Cc1cccc(c1-4)[C@@]3(C)O            nM         27.7
4  CN1CCc2ccc3c4c2[C@H]1Cc1cccc(c1-4)[C@@H]3N            nM           18
5  CC(=O)N[C@@H]1c2cccc3c2-c2c1ccc1c2[C@@H](C3)N(C)CC1            nM          538
6  CC(=O)N[C@H]1c2cccc3c2-c2c1ccc1c2[C@@H](C3)N(C)CC1            nM         1320
7  CCO[C@]1(CC)c2cccc3c2-c2c1ccc1c2[C@@H](C3)N(C)CC1            nM         25.7

Asked: Recorded Ki of CN1CCc2ccc3c4c2[C@H]1Cc1cccc(c1-4)C3=O , please.
Given back: 291

Asked: Let us now turn to CN1CCc2ccc3c4c2[C@H]1Cc1cccc(c1-4)[C@@H]3O
Given back: 103

###

Biological target: D(2) dopamine receptor (Homo sapiens)
Test: Binding affinity was measured on cloned Human D2A Receptor which is labeled by [3H]raclopride
recordedEndpoint: Ki (nM)
The reply should be a number in nM, with the unit left off.

Before answering, review these 3 worked examples.
>>> print(df.to_string())
                                        smi                      measurementtarget  recordedendpoint  measurement
0  C[C@@H]1c2cccc3c2-c2c1ccc1c2[C@@H](C3)N(C)CC1  D(2) dopamine receptor (Homo sapiens)                Ki         19.4
1  C[C@H]1c2cccc3c2-c2c1ccc1c2[C@@H](C3)N(C)CC1  D(2) dopamine receptor (Homo sapiens)                Ki         39.2
2         CCCN(CCC)[C@H]1CCc2c(F)ccc(O)c2C1  D(2) dopamine receptor (Homo sapiens)                Ki         3760

// moving on: another record for Ki
Asked: Reported Ki for D(2) dopamine receptor (Homo sapiens), given CN1CCc2ccc3c4c2[C@H]1Cc1cccc(c1-4)C3 ?
Given back: 83.2

###

Here, each record is paired with measured log10(Ki) data.
Target: 5-hydroxytryptamine receptor 7 (Rattus norvegicus, UniProt P32305)
Assay: Binding affinity against Rat 5-hydroxytryptamine 7 receptor using [3H]5-HT
Form field - Quantity: Ki; Unit: nM; Scale: log10

Before answering, review these 4 worked examples.
                                        smi  measurement
0           CCCN(CCC)[C@@H]1CCc2cccc(O)c2C1         0.94
1      CN1CCc2ccc3c4c2[C@H]1Cc1cccc(c1-4)C3         0.84
2  C[C@@H]1c2cccc3c2-c2c1ccc1c2[C@@H](C3)N(C)CC1         0.53
3     CN1CCc2cccc3c2[C@H]1Cc1ccc(O)c(O)c1-3         2.27

Asked: Recorded log10(Ki) of C[C@H]1c2cccc3c2-c2c1ccc1c2[C@@H](C3)N(C)CC1 , please.
Given back: 0.75

Asked: Let us now turn to NCCc1c[nH]c2ccc(C(N)=O)cc12
Given back: -1.54

Asked: Let us now turn to CCCN(CCC)[C@H]1CCc2c(F)ccc(O)c2C1
Given back: 3.50

Asked: Let us now turn to Cc1cccc2c1-c1cccc3c1[C@@H](C2)N(C)CC3
Given back: 1.58

###

Biological target: 5-hydroxytryptamine receptor 1A (Homo sapiens, UniProt P08908)
Sequence (P08908 whole entry): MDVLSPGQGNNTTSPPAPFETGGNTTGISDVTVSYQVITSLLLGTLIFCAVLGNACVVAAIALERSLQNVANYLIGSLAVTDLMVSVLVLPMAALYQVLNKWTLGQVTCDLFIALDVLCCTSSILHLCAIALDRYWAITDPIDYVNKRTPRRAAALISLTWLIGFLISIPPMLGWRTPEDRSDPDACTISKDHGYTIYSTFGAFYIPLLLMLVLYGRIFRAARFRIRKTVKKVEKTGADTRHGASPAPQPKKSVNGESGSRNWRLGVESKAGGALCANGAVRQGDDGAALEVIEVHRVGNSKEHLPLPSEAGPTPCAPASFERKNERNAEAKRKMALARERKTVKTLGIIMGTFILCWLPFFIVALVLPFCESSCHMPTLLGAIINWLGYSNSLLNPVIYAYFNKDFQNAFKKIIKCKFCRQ
Assay: Binding affinity was measured on cloned human 5-hydroxytryptamine 1A receptor which is labeled by [3H]8-OH-DPAT
// classify: if (Ki < 200 nM) yes (1) else no (0)

>>> print(df.to_string())
                                        smi  classname
0  CN1CCc2ccc3c4c2[C@H]1Cc1cccc(c1-4)[C@@H]3N     no (0)
1  CCO[C@]1(CC)c2cccc3c2-c2c1ccc1c2[C@@H](C3)N(C)CC1    yes (1)
2  CN1CCc2ccc3c4c2[C@H]1Cc1cccc(c1-4)[C@H]3N    yes (1)

Asked: Could you please tell me whether Ki recorded for CCO[C@@]1(CC)c2cccc3c2-c2c1ccc1c2[C@@H](C3)N(C)CC1 is less than 200 nM?
Given back: yes (1)

Asked: Let us now turn to CC(=O)N[C@H]1c2cccc3c2-c2c1ccc1c2[C@@H](C3)N(C)CC1
Given back: no (0)

Asked: Let us now turn to CO[C@]1(C)c2cccc3c2-c2c1ccc1c2[C@@H](C3)N(C)CC1
Given back: yes (1)

Asked: Let us now turn to CO[C@@]1(C)c2cccc3c2-c2c1ccc1c2[C@@H](C3)N(C)CC1
Given back: yes (1)

###

5-hydroxytryptamine receptor 1A (Homo sapiens, UniProt P08908) Ki data
The reply should be a number in nM, with the unit left off.

                                     smi  recordedendpoint  endpointunit  measurement
0   CN1CCc2ccc3c4c2[C@H]1Cc1cccc(c1-4)C3                Ki            nM         40.7
1  Cc1cccc2c1-c1cccc3c1[C@@H](C2)N(C)CC3                Ki            nM         14.4

Asked: Reported Ki for 5-hydroxytryptamine receptor 1A (Homo sapiens, UniProt P08908), given CCCN(CCC)[C@H]1CCc2c(F)ccc(O)c2C1 ?
Given back: 87

Asked: Let us now turn to C[C@@H]1c2cccc3c2-c2c1ccc1c2[C@@H](C3)N(C)CC1
Given back: 5.05

Asked: Let us now turn to C[C@H]1c2cccc3c2-c2c1ccc1c2[C@@H](C3)N(C)CC1
Given back: 31.1
